Reference for the values: ChEMBL document CHEMBL1201862

- TARGET_UNDER_TEST: Ataxin-2 (Homo sapiens)
- EXPERIMENTAL_DETAILS: qHTS for Inhibitors of ATXN expression.
- Assay type: functional
About 2,100 (0.53%) of roughly 400,000 compounds were called active. About 14% were inconclusive and are not listed. The sample holds actives, similar compounds and a random draw of the others, so the mix is not that of the screen.
PARAMETER: Potency

Below are worked cases with known answers.
So what's the measured Potency for this one? CCOC(=O)N1CCC2(CC1)C(C#N)=C(N)Oc1c2sc2nc(C)cc(C)c12
25.1 µM (active)

# query: Potency of entry NC(c1ccccc1)c1csc(NC(=O)Nc2ccc(OC(F)(F)F)cc2)n1 (stereo not given)
39.8 µM (active)

Using the record for CCN(Cc1ccncc1)C(=S)Nc1ccccc1C , report its Potency.
inactive

Value lookup for Potency; key = CC(=O)c1cccc(NC(=O)CC2SC(N/N=C/c3ccccc3)=NC2=O)c1 (stereo not given)
inactive

Others:
What value of Potency has been reported for the following compound? Cc1cccc(NC(=O)c2[nH]cnc2C(=O)NCCCCCNC(=O)OC(C)(C)C)c1
20 µM (active)

###

- TARGET_UNDER_TEST: Ataxin-2 (Homo sapiens)
- EXPERIMENTAL_DETAILS: qHTS for Inhibitors of ATXN expression.
- Assay type: functional
About 2,100 (0.53%) of roughly 400,000 compounds were called active. Inconclusive results (about 14%) are left out. No rule for the calls is given here. The sample holds actives, similar compounds and a random draw of the others, so the mix is not that of the screen.
Pick one and only one: t for active, f for inactive

Can you look up the reported call for CCOC(=O)C1CCN(C(c2ccc(OC)c(OC)c2)c2sc3nc(C)nn3c2O)CC1 (stereo unspecified) for me?
f

Returns: the outcome recorded for CCOc1ccccc1CNC(=O)C1CCN(c2nnc(C)c3c(C)n(-c4ccc(C)cc4)nc23)CC1 in this assay.
t

# outcome recorded in this test, key = S=C(c1ccc(-c2ccc(Br)cc2)o1)N1CCOCC1
f

I would be grateful if you could indicate the recorded call for COc1cccc(-c2ccc3c(N)c(C(=O)c4ccc(F)cc4)sc3n2)c1 .
f

Field: outcome | Entry: Cc1ccc(-c2ccc(S(=O)(=O)N3CC(C)OC(C)C3)cc2)cc1 (stereo unspecified)
f

For this molecule, state the assay outcome: CNS(=O)(=O)c1ccc2c3c(cccc13)C(=O)N2C
f

Next:
Hi, sorry to bother you, what did the test record for Nc1cc2c(cc1O)CCCC2 ?
f

For COCCCNC(=O)c1ccc2c3c(onc13)-c1ccccc1C2=O , what call appears in the results of this test?
t

Just curious, what result did O=C(Nc1ccccc1)N(C1=NCCC1)c1ccccc1 get here?
f

Record lookup: outcome of this test for CCn1cc(C(=O)N2CCCC(N3CCN(c4cccc(C(F)(F)F)c4)CC3)C2)cn1 (stereo unspecified) ?
f

So what was the verdict on O=C(O)c1cc2cc(Cl)cc(Cl)c2oc1=O in this test?
f

Recorded test call requested for CC(=O)n1c(/C=N/c2ccccc2)c(O)c2ccccc21
f

###

- TARGET_UNDER_TEST: Ataxin-2 (Homo sapiens) (UniProt Q99700)
- Sequence (Q99700 whole entry): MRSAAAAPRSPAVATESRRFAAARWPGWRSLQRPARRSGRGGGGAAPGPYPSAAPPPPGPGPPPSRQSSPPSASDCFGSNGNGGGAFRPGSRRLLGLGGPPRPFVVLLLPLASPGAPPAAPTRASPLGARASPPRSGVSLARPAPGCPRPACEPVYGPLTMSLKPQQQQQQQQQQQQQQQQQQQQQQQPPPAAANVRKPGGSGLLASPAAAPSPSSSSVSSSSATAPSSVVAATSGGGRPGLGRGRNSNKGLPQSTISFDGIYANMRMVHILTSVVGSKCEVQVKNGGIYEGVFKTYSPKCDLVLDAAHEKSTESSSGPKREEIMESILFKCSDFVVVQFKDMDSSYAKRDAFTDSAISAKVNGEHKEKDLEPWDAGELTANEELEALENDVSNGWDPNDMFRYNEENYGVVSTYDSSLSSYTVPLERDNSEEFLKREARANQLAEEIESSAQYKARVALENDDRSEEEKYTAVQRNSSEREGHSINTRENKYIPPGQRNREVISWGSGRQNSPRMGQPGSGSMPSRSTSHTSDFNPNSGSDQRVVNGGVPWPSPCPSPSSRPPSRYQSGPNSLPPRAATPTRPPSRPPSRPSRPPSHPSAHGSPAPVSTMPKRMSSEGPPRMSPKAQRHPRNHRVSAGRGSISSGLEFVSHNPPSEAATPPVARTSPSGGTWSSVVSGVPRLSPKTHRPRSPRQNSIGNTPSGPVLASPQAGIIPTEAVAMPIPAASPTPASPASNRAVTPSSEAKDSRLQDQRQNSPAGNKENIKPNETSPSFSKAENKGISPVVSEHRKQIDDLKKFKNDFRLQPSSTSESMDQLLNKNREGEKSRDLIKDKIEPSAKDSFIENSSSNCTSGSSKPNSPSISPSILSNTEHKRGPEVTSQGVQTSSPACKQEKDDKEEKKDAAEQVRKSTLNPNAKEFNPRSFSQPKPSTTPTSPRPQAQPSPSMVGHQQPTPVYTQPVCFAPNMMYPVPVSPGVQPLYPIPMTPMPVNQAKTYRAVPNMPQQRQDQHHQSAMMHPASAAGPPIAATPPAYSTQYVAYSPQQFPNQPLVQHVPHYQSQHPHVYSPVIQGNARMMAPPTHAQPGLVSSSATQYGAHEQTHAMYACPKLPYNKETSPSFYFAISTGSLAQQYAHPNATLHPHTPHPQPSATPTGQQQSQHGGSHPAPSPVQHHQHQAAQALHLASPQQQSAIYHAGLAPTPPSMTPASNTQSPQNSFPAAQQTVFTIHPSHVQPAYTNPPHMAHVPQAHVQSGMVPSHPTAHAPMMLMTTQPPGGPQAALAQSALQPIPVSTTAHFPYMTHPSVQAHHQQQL
- EXPERIMENTAL_DETAILS: qHTS for Inhibitors of ATXN expression.
- Assay type: functional
Among all 400,000 compounds or so, about 2,100 (0.53%) were called active. Another 14% or so got no clear call; they are omitted. Many of the other results were omitted from the sample, so actives are more common in it than they were.
PARAMETER: Potency

The following compounds have reported results that may help.
Which Potency is reported for this compound? Cc1ccc(C(=O)OCC(=O)NCCc2ccc(F)cc2)cc1S(=O)(=O)N1CCOCC1
inactive

Would you mind telling me what Potency value was observed for N#Cc1c(C(F)(F)F)cc(-c2cccs2)nc1N1CCCCC1 ?
inactive

Name the recorded Potency for CCOC(=O)c1cc2c(=O)n3cccc(C)c3nc2n(CCOC)/c1=N\C(C)=O .
inactive

May I ask what Potency has been recorded for O=C(OCc1nc2ccccc2s1)c1ccccc1O ?
inactive

// query Potency value for entry O=C1NC(c2ccco2)Nc2sc3c(c21)CCN(Cc1ccccc1)C3 (stereo not given)
inactive

Next:
Can you share its Potency? I mean this compound: Cc1cc(C(=O)CCl)c(C)n1CCc1ccc(F)cc1
37.7 µM (active)

Given the compound Cc1nn(-c2ccccc2)c(Cl)c1C(=O)NNC(=O)c1ccncc1 , what is its reported Potency?
inactive

Can you look up the measured Potency of COC(C/C=C/C(=O)[C@H](C)OCc1ccccc1)OC for me?
39.8 µM (active)

Entry CN(C(=S)NC(=O)C12CC3CC(CC(C3)C1)C2)c1ccc(O)cc1 : reported Potency = ?
inactive

Potency lookup needed for COC(=O)C1=CN(Cc2ccc(OC)c(OC)c2)C=C(C(=O)OC)C1c1cccs1 , thanks.
inactive

###

- TARGET_UNDER_TEST: Ataxin-2 (Homo sapiens) (UniProt Q99700)
- EXPERIMENTAL_DETAILS: qHTS for Inhibitors of ATXN expression.
- Assay type: functional
Out of some 400,000 compounds screened, about 2,100 (0.53%) were called active. Not shown: some 14% with an inconclusive outcome. The rule behind the calls is not given here. Only a selection was taken, and actives are over-represented in it overall.
Outcome field: choose from active, inactive

Kindly provide the recorded test outcome for the following compound: Nc1cc([N+](=O)[O-])ccc1Nc1ccc(O)cc1
active

Answer briefly: the call reported for C=CCN(CC=C)CCOc1cccc(Oc2ccccc2)c1 in this assay.
inactive

Identify the outcome logged in this assay for the compound shown: CN(CC(=O)Nc1ccccc1Cl)C(=O)COC(=O)c1nc(Cl)c(Cl)c(Cl)c1Cl
active

What call does the record list for CN(C1CCCCC1)S(=O)(=O)c1ccc(SCC(=O)C(C)(C)C)nc1 ?
inactive

Next:
For this compound, state the assay outcome: COc1ccc(CNc2cccc3[nH]c(C(F)(F)F)nc23)cc1OC
inactive

Hi, do you know how COc1cc(/C=C(\C#N)c2nc3ccccc3[nH]2)ccc1OCc1ccccc1F came out in this test?
inactive

Test call for this compound, please: CCN(c1ccccc1)c1nc(=O)c2cccnc2s1
inactive

In this assay, the call recorded for Cc1nn2c(-c3ccccc3)c(-c3ccccc3)nc2nc1O was what?
inactive

Per the assay record, what outcome was assigned to COc1cc(C(=O)NCC(c2ccco2)N2CCCC2)ccc1OCc1ccc(Cl)cc1Cl (centres undefined) ?
active

###

- TARGET_UNDER_TEST: Ataxin-2 (Homo sapiens)
- EXPERIMENTAL_DETAILS: qHTS for Inhibitors of ATXN expression.
- Type: functional
Screen size: about 400,000 compounds; about 2,100 (0.53%) were called active. Another 14% or so got no clear call; they are omitted. The rule behind the calls is not given here. Only a selection was taken, and actives are over-represented in it overall.
Pick from T = active, F = inactive when you respond.

Hello, I am checking results. What call was entered for Cc1nc2ccc(Cl)cn2c1[N+](=O)[O-] ?
F

---
Assay outcome for CCOC(=O)/C(=C/c1ccc(N2CCC(c3ccccc3)=N2)cc1)C(C)=O : what was it?
F

State the result this test recorded for N#CCC(=O)N/N=C/c1cc(-c2ccccc2)n(-c2ccc(Cl)cc2)c1-c1ccccc1 .
F

Would you mind telling me which call this test gave CCN(CC)CCNC(=O)c1cc(-c2ccc(Br)s2)nc2ccccc12 ?
T

Please share the test call associated with COC(=O)c1c(NC(=O)c2ccc(S(=O)(=O)N3CCCC(C)C3)cc2)sc2c1CCN(C(C)C)C2 (stereo not drawn) .
F

I would be grateful if you could indicate the recorded call for Cc1ccc2nc(N3C(=O)C(O)=C(C(=O)c4ccc(C)o4)C3c3cccc(O)c3)sc2c1 (stereo not drawn) .
F

For CCC(C)[C@H](N)C(=O)NC[C@H]1CC[C@H](C(=O)N[C@@H](Cc2ccccc2)C(=O)O)CC1 (stereo partly drawn) , what call appears in the results of this test?
F

Write down the call the test reported for this molecule. Item: O=C(NC1CC1)c1cc(-c2ccc(Br)cc2)nc2ccccc12
F

###

- TARGET_UNDER_TEST: Ataxin-2 (Homo sapiens) (UniProt Q99700)
- EXPERIMENTAL_DETAILS: qHTS for Inhibitors of ATXN expression.
- Assay type: functional
The whole screen tested about 400,000 compounds, of which about 2,100 (0.53%) were called active. Not shown: some 14% with an inconclusive outcome. No rule for the calls is given here. What follows is part of a selection rich in actives, with near analogues and random picks from the rest.
Please reply with one of these outcomes: label 1 for active, label 0 for inactive

Consider the worked cases shown below.
Identify the outcome logged in this assay for the compound shown: C(=N\NC1=NCCN1)/c1ccncc1
label 0

Check the results log: what was the call for CCCN(CC1CC1)C(=S)NC(=O)c1ccccc1C ?
label 0

# lookup: test call for CCCCc1c(-c2cccc(F)c2)ncn1CCc1ccccc1OC
label 1

Hey, what did the test say about CSc1c(C#N)c(O)nc2c1CCc1ccccc1-2 ?
label 0

Dear colleague, could you share the recorded outcome for C=CCN(CC=C)C(=S)NC(=O)c1ccc(-c2ccccc2)cc1 when you have a moment?
label 1

---
# outcome recorded in this test, key = COCCCn1c(N)c(-c2nc3ccccc3n2C)c2nc3ccccc3nc21
label 0

Outcome? COc1ccccc1NS(=O)(=O)c1cccc(NC(=O)Nc2cccc(Cl)c2)c1
label 1

I'd appreciate the recorded outcome for O=S1(=O)C=C(Sc2nnc(-c3ccccc3)o2)c2ccccc21 from this test.
label 1
